Biological target: T1, human IGFBP1 (human, UniProt P08833 26-259)
T1 construct: Bought protein
T1 sequence (looked up): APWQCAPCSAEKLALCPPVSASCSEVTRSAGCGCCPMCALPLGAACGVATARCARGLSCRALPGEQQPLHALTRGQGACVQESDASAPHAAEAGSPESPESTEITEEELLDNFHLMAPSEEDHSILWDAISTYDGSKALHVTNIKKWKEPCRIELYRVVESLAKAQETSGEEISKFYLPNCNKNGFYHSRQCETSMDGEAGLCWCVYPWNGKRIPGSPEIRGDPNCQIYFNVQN
Test: ELISA, scFv, secondary screening
experimental.readout: binding result

1) E02 scFv (scFv, V domains shown, scFv as screened by ELISA) VH: QMQLVQSGAEVKKPGSSVKVSCKASGGTFSSYAISWVRQAPGQGLEWMGGIIPIFGTANYAQKFQGRVTITADESTSTAYMELSSLRSEDTAVYYCATMSVAGPSISFDYWGQGTLVTVSS VL: DIQMTQSPSSLSASVGDRVAIPCRASQSISSYLNWYQQKPGKAPKLLIYAASSLQRGVPSRFSGSGSGTDFTLTISSLQPEDFATYYCQETYSNLWTFGQGTKVEIK: no binding
2) E03 scFv (scFv, V domains shown, scFv as screened by ELISA) VH: QVQLVQSGAEVKKPGSSVKVSCKASGGTFSSYAISWVRQAPGQGLEWMGGITPIFGTANYAQKFQGRVTITADESTSTAYMELSSLRSEDTAVYYCARAGILTGYYFDYWGQGTLVTVSS VL: NFMLTQPHSVSESPGKTVTISCTRSSGSIASNYVQWYQQRPGSSPTTVIYEDNQRPSGVPDRFSGSIDSSSNSASLTISGLKTEDEADYYCQSYDSSNRPWVFGGGTKLTVL: no binding
3) C12 scFv (scFv, V domains shown, scFv as screened by ELISA) VH: QVQLVQSGAEVKKPGSSVKVSCKASGGTFSSYAISWVRQAPGQGLEWMGGIIPIFGTANYAQKFQGRVTITADESTSTAYMELSSLRSEDTAVYYCATLGRELSFDYWGQGTLVTVSS VL: DIVMTQSPSSLSASVGDRVTITCRASQSISSYLNWYQQKPGKAPKLLIYAASSLQSGVPSRFSGSGSGTDFTLTISSLQPEDFATYYCQQSYSESWTFGQGTTVDIK: no binding
